# TESTED_TARGET: ALK protein in SR cells (Homo sapiens, UniProt Q9UM73)
# Construct: NPM (nucleophosmin, NPM1, P06748) fusion partner; host or cells: SR (ALCL) cells; the other entry of the earlier key: NPM1 (P06748, Nucleophosmin)
# Sequence (Q9UM73 with tags, fused parts or gaps): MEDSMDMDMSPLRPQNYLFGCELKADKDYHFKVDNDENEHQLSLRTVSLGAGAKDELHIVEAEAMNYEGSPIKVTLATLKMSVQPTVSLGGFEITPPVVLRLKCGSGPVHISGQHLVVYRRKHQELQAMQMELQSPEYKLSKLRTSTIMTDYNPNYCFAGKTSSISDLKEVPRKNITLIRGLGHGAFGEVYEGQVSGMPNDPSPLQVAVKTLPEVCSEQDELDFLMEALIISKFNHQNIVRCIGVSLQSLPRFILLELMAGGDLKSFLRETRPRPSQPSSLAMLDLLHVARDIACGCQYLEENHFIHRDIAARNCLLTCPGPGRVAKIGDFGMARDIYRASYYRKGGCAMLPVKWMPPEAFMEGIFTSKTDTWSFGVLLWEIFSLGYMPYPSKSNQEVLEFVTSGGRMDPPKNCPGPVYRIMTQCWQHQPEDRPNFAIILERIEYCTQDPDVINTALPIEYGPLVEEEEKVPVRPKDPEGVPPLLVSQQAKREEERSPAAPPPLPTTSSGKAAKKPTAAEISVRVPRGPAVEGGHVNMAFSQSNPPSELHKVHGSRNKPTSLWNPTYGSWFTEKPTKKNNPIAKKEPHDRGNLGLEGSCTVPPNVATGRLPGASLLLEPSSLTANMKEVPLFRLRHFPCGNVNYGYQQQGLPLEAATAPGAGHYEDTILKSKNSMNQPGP
# PROTOCOL: Block of ALK degradation by proteosome inhibitors MG132 and MLN4924 in SR cells
# Format: cell-based
MEASURE_NAME: reduction of ALK protein level and its block by MG132 and MLN4924

COMPOUND | VALUE_REPORTED
COc1cc(N2CCC(N3CCN(C(=O)CNc4cccc5c4C(=O)N(C4CCC(=O)NC4=O)C5=O)CC3)CC2)ccc1Nc1ncc(Cl)c(Nc2ccccc2P(C)(C)=O)n1 (stereo not shown) [SIAIS164018] | able to be blocked
COc1cc(N2CCC(NC(=O)CCCCCCCCCC(=O)N[C@H](C(=O)N3C[C@H](O)C[C@H]3C(=O)NCc3ccc(-c4scnc4C)cc3)C(C)(C)C)CC2)ccc1Nc1ncc(Cl)c(Nc2ccccc2P(C)(C)=O)n1 [SIAIS1210117] | able to be blocked
